Source of measurements: patent US8044069B2

Some molecules, each annotated with its measured pIC50.
Biological target: human Cav2.2 (Homo sapiens)
Assay: Assessment of calcium channel activity using FLIPR (Ca2+ influx in IMR32 cells)
Conditions: IMR32 cells endogenously expressing human Cav2.2; 60 minute pre-incubation; 2 μM nifedipine; depolarized with 80 mM KCl, 5 mM CaCl2
pIC50: −log10 of the molar value.
measurement.name: pIC50

> print(dat)
                                   molecule  measurement.name  relational.operator  obs.value
1  O=C1N(CCN2CCN(c3cccc(C(F)(F)F)c3)CC2)CCCC1(c1ccc(F)cc1)c1ccc(F)cc1             pIC50                    =       5.32
2  COCc1cc(/C=C/c2ccccc2OCC(O)CN(C)CCN2CCC(c3ccc(F)cc3)(c3ccc(F)cc3)C2=O)on1 (centres unmarked)             pIC50                    =       5.73
3  CC1(NC(=O)CN2CCC(c3ccccc3)(c3ccccc3)C2=O)CCN(Cc2ccccc2)C1 (centres unmarked)             pIC50                    =       5.68
4  O=C1N(CCN2CCN(c3cccc(C(F)(F)F)c3)CC2)CCC1(c1ccc(F)cc1)c1ccc(F)cc1             pIC50                    =       5.40
5  O=C(CN1CCCC(c2ccccc2)(c2ccccc2)C1=O)N1CC(c2ccc(C(F)(F)F)cc2)C1             pIC50                    =       5.51
6  O=C(CN1CCC(c2ccccc2)(c2ccccc2)C1=O)NCc1cccc(C(F)(F)F)c1             pIC50                    =       5.63
7  O=C(CN1CCCC(c2ccc(F)cc2)(c2ccc(F)cc2)C1=O)N1CCC(c2ccccc2)(c2ccccc2)CC1             pIC50                    =       5.41
8  O=C(CN1CCC(c2ccccc2)(c2ccccc2)C1=O)NCc1ncco1             pIC50                    <       4.52

----------
Target: human Cav2.2 (Homo sapiens, UniProt Q00975)
Sequence (Q00975 whole entry): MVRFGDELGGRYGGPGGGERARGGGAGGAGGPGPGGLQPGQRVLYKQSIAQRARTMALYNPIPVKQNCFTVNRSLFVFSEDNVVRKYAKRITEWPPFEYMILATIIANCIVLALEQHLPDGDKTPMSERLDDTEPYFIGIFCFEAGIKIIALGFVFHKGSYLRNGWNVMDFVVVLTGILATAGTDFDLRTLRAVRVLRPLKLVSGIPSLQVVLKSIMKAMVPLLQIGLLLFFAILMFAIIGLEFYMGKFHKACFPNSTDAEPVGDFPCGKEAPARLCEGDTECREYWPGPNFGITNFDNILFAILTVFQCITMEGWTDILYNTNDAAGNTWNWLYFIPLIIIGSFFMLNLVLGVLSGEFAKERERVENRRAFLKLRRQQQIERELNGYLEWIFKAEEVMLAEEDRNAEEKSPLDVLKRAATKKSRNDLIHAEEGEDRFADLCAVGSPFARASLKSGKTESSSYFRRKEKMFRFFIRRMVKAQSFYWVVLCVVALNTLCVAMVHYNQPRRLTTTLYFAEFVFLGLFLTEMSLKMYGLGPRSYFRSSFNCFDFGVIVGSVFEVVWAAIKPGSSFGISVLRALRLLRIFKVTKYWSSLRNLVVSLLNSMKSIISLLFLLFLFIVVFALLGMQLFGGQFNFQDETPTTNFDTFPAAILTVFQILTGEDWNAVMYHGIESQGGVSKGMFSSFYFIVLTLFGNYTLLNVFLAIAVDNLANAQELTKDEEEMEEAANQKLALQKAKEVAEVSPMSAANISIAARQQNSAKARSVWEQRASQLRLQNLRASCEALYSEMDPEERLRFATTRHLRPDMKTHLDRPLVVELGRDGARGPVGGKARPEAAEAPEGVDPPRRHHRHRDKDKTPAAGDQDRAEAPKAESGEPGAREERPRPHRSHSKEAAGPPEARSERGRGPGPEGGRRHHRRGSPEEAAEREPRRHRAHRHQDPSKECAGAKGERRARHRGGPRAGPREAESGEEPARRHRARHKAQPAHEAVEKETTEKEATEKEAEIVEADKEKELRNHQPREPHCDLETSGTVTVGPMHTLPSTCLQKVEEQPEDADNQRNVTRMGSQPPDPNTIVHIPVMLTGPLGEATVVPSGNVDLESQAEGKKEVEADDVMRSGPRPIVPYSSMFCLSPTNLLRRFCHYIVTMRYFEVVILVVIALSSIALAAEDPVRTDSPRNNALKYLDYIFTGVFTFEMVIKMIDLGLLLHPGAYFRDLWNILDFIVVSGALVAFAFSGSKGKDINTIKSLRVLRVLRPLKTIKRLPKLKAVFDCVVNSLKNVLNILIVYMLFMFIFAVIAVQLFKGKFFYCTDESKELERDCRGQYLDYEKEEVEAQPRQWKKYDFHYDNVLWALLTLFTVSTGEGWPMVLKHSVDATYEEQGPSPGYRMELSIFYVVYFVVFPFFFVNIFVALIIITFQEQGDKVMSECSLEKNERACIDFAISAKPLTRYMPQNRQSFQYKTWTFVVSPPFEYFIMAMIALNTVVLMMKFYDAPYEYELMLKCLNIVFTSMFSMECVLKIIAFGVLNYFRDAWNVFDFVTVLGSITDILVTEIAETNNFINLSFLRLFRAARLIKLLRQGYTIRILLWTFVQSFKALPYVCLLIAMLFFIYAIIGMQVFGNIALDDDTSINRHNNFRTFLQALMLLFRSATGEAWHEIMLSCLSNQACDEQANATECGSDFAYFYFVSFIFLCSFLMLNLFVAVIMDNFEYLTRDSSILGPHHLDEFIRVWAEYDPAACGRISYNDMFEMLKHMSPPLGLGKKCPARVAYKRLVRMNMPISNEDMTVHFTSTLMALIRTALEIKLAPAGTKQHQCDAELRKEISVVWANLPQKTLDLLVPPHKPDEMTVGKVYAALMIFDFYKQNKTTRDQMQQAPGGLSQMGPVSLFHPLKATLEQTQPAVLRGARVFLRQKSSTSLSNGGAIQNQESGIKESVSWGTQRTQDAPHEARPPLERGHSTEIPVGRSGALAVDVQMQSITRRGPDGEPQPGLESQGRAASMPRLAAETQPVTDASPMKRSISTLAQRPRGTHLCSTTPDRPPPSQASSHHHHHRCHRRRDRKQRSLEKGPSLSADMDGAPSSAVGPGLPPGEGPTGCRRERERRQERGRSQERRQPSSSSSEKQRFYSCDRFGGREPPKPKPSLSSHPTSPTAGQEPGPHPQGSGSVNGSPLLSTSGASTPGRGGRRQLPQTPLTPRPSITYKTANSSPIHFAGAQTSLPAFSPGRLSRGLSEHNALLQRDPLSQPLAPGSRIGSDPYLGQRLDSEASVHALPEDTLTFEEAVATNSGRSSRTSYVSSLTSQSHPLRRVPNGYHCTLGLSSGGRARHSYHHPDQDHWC
Sequence (P54289 25-951 partner limits assumed): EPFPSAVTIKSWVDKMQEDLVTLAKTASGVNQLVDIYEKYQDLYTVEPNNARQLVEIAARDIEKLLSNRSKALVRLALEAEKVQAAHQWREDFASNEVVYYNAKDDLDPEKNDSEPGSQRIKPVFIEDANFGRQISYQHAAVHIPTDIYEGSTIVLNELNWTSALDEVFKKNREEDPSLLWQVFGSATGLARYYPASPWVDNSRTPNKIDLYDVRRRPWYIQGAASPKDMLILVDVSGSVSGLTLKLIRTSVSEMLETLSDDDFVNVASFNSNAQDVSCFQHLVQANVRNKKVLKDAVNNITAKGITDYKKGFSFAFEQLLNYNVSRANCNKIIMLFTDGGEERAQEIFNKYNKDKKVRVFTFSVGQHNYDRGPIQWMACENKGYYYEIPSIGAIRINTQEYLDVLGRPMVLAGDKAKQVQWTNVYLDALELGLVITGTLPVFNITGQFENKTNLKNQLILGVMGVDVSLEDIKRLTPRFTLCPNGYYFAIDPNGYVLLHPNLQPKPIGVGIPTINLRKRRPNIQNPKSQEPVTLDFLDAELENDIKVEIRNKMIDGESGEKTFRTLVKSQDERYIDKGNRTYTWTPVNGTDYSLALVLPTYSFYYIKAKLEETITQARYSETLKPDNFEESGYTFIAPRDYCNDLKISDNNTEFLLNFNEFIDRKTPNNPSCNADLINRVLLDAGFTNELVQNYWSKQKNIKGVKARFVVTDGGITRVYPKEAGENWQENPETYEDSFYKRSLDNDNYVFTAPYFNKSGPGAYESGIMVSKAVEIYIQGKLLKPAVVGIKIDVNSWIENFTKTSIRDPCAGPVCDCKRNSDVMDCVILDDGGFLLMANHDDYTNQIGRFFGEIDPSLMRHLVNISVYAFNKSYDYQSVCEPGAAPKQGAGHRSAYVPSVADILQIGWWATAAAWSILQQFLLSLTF
Sequence (P54289 952-1103 partner limits assumed): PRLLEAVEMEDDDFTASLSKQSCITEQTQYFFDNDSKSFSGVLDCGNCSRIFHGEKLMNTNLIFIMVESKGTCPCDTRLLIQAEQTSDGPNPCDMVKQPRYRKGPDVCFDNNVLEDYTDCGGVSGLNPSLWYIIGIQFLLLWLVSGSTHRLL
Sequence (P54284 whole entry partner): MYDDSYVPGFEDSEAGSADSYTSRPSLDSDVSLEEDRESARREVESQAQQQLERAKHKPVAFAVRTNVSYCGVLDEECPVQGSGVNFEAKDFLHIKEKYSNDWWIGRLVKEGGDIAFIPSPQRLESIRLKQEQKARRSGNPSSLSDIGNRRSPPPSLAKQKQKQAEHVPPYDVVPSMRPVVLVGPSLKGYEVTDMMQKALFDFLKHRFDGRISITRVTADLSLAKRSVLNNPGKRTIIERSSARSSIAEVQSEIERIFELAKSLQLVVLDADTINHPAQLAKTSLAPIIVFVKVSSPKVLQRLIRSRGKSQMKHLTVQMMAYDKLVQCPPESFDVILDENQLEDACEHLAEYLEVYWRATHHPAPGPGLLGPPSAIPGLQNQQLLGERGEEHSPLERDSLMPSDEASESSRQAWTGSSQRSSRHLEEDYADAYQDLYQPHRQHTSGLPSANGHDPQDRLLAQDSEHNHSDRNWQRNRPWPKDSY
Assay: Assessment of calcium channel activity using FLIPR (Ca2+ influx in IMR32 cells)
Format: cell-based
Details: IMR32 cells endogenously expressing human Cav2.2; 60 minute pre-incubation; 2 μM nifedipine; depolarized with 80 mM KCl, 5 mM CaCl2
pIC50: −log10 of the molar value.
Some compounds, each annotated with its measured pIC50.
measurement.name: pIC50

> print(dat)
                                    compound  relational.operator  obs.value
 1  O=C(CN1CCCC(c2ccccc2)C1=O)N1CCc2ccc(C(F)(F)F)cc2C1 (stereo not shown)                    =       5.05
 2  CN(C(=O)CN1CCCC(c2ccccc2)(c2ccccc2)C1=O)C1CCN(Cc2cccc(C(F)(F)F)c2)CC1                    =       6.00
 3  COc1ccccc1N1CCN(CCN2CCCC(c3ccc(F)cc3)(c3ccc(F)cc3)C2=O)CC1                    =       5.96
 4  O=C(CN1CCC[C@H](c2ccccc2)C1=O)N1Cc2ccc(F)cc2C1 (single isomer, unassigned)                    <       4.52
 5  O=C1CN(CCN2CCC(c3ccccc3)(c3ccccc3)C2=O)CCN1C(c1ccccc1)c1ccccc1                    =       5.74
 6  O=C(CN1CCCC(c2ccccc2)(c2ccccc2)C1=O)NC1CN(Cc2cccc(C(F)(F)F)c2F)C1                    =       6.07
 7  O=C(CN1CCC(c2ccccc2)(c2ccccc2)C1=O)N1CCN(Cc2cccc(C(F)(F)F)c2)C(=O)C1                    =       5.94
 8  COc1ccc(C2(c3ccc(OC)cc3)CCCN(CCCN3CCN(Cc4cc(OC)cc(OC)c4)CC3)C2=O)cc1                    =       5.64
 9  O=C(CN1CCC(c2ccc(F)cc2)(c2ccc(F)cc2)C1=O)N1Cc2ccc(C(F)(F)F)cc2C1                    =       5.82
10  O=C1N(Cc2noc(-c3ccc(C(F)(F)F)cc3)n2)CCC1(c1ccccc1)c1ccccc1                    =       5.40
11  O=C1N(CCCc2nc(-c3ccc(C(F)(F)F)cc3)no2)CCC1(c1ccccc1)c1ccccc1                    =       5.36
12  CC(CNC(=O)CN1CCC(c2ccc(F)cc2)(c2ccc(F)cc2)C1=O)(c1ccccc1)c1ccccc1                    =       5.62
13  CC1(C)C(=O)N(CCN2CCC(c3ccccc3)(c3ccccc3)C2=O)CCN1Cc1cccs1                    =       5.98
14  O=C(CN1CCC(c2ccc(F)cc2)(c2ccc(F)cc2)C1=O)N1CCc2ccccc2C1                    =       5.35
15  COc1cccc(CCN(C)CCCN2CCCC(c3ccc(F)cc3)(c3ccc(F)cc3)C2=O)c1                    =       5.79
16  COc1ccc(C2(c3ccc(OC)cc3)CCCN(CCN(C)CCc3cccc(OC)c3)C2=O)cc1                    =       5.72
